Biological target: recombinant human GPR52 (Homo sapiens, UniProt Q9Y2T5)
Sequence (Q9Y2T5 whole entry): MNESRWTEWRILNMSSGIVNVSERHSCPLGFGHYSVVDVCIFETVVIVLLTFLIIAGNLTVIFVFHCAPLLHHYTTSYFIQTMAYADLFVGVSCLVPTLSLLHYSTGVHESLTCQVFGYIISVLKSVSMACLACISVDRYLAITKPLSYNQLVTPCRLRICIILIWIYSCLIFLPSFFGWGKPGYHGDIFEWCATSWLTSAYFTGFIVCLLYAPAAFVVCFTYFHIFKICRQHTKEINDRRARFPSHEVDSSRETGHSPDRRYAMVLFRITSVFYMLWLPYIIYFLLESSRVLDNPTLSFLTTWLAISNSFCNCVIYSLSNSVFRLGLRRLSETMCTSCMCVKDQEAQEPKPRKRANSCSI
Assay: TR-FRET cAMP assay (LANCE Ultra cAMP Kit), GPR52 activity
Conditions: Flp-In-CHO cells stably expressing recombinant human GPR52; cAMP production, normalized to the positive control
Experimental: TR-FRET cAMP assays were performed using commercially available assay kits (LANCE™ Ultra cAMP Kit). […] Cells were harvested with cell stripper and resuspended in Stimulation Buffer (5 mM HEPES, 0.1% bovine serum albumin (BSA), 0.5 mM IBMX, pH 7.4). […] The LANCE™ Ultra cAMP assay uses time-resolved fluorescence resonance energy transfer (TR-FRET) to detect cAMVP production; this signal was quantified using a Pherastar multi-mode plate reader. […]
Would you mind telling me the reported EC50 of each entry?

Below: 5 compounds and their reported EC50.
[
  {
    "COMPOUND": "Cc1cc(-c2cc(COc3cccc(C(F)(F)F)c3)ccn2)ccc1C(N)=O [Example 2]",
    "SYSTEM TESTED": "recombinant human GPR52 (Homo sapiens, UniProt Q9Y2T5)",
    "EC50": "< 25 nM"
  },
  {
    "COMPOUND": "Cc1cc(-c2cc(COc3ccc4nn(C)cc4c3)ccn2)ccc1C(N)=O [Example 72]",
    "SYSTEM TESTED": "recombinant human GPR52 (Homo sapiens, UniProt Q9Y2T5)",
    "EC50": "101 to 1000 nM"
  },
  {
    "COMPOUND": "Cc1cc(-c2cc(COc3ccc(C(C)(C)O)cc3)ccn2)ccc1C(N)=O [Example 69]",
    "SYSTEM TESTED": "recombinant human GPR52 (Homo sapiens, UniProt Q9Y2T5)",
    "EC50": "25 to 100 nM"
  },
  {
    "COMPOUND": "Cc1cc(-c2cncc(COc3cc(F)c(F)c(F)c3)c2)ccc1C(N)=O [Example 100]",
    "SYSTEM TESTED": "recombinant human GPR52 (Homo sapiens, UniProt Q9Y2T5)",
    "EC50": "101 to 1000 nM"
  },
  {
    "COMPOUND": "Cc1ccc(OCc2ccnc(-c3ccc(C(N)=O)c(C)c3)c2)cc1 [Example 36]",
    "SYSTEM TESTED": "recombinant human GPR52 (Homo sapiens, UniProt Q9Y2T5)",
    "EC50": "101 to 1000 nM"
  }
]

Give measured EC50 for every item shown.
1. N#Cc1ccc(OCc2ccnc(-c3ccc(C(N)=O)c(Cl)c3)c2)cc1F [Example 77]
2. Cc1cc(-c2cc(COc3cc(C(F)(F)F)nn3C)ccn2)ccc1C(N)=O [Example 66]
3. COc1cc(Cl)cc(OCc2ccnc(-c3ccc(C(N)=O)c(C)c3)c2)c1 [Example 24]
4. Cc1ccc(F)c(OCc2ccnc(-c3ccc(C(N)=O)c(C)c3)c2)c1 [Example 14]

Outgoing:
["25 to 100 nM", "25 to 100 nM", "25 to 100 nM", "101 to 1000 nM"]

Dear reader, for each entry below, please note its EC50.
1. CCCc1ccccc1OCc1ccnc(-c2ccc(C(N)=O)c(C)c2)c1 [Example 23]
2. Cc1cc(-c2cncc(COc3ccc(F)cc3)c2)ccc1C(N)=O [Example 97]
3. Cc1cc(-c2ccnc(COc3ccc(C#N)c(F)c3)c2)ccc1C(N)=O [Example 82]
4. Cc1cc(-c2ccnc(COc3ccc4c(cnn4C)c3)c2)ccc1C(N)=O [Example 87]
5. Cc1cc(-c2cc(COc3cccc(C)c3C)ccn2)ccc1C(N)=O [Example 41]

Outgoing:
1. < 25 nM
2. > 1000 nM
3. 25 to 100 nM
4. 101 to 1000 nM
5. 101 to 1000 nM

Batch of 2 compounds: report EC50 for each.
1. Cc1cc(-c2cc(COc3ccc4c(c3)CCO4)ccn2)ccc1C(N)=O [Example 64]
2. Cc1cc(-c2cncc(COc3cc(F)cc(C#N)c3)c2)ccc1C(N)=O [Example 92]

Outgoing:
< 25 nM
> 1000 nM
